- target or test system: IL-17A(FLAG-Tagged): IL-17RA(His-Tagged) (Homo sapiens, UniProt Q16552, K93Q)
- Sequence (Q16552 with tags, fused parts or gaps K93Q): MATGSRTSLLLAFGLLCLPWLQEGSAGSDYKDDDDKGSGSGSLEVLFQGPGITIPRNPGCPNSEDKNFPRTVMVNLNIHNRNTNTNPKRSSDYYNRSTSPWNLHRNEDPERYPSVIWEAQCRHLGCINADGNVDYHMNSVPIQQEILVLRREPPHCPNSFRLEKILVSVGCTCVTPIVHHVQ
- assay procedure: IL-17A(FLAG-Tagged): IL-17RA(His-Tagged) Binding Disruption Eu-HTRF Assay
- experimental setup: IL-17A/IL-17RA binding disruption, simple average if tested more than once
- Excerpt: IL-17A(FLAG-Tagged): IL-17RA(His-Tagged) Binding Disruption Eu-HTRF Assay An antibody directed against the FLAG tag of IL-17A (SEQ ID NO:1) is labeled with the HTRF donor chromophore (Europium-cryptate). […] The fluorescence-resonance energy transfer (FRET) depends on the vicinity of the donor chromophore to the acceptor, and interruption of the binding between the IL-17A and IL-17RA causes the reduction/loss of FRET. […]
quantity name: IC50 (nM)

Guide cases for IC50, answers given:
Cc1nonc1C(=O)N[C@H](c1cn2ncc(C(NC(=O)CC3CC(F)(F)C3)C(C)C)cc2n1)C1CCC(F)(F)CC1 (single isomer, unassigned) [Example 513] :: 74
Cc1nocc1C(=O)N[C@H](c1cn2ncc([C@H](NC(=O)CC(C)C(F)(F)F)C3CC3)cc2n1)C1CCC(F)(F)CC1 (single isomer, unassigned) [Example 124] :: 110
CC(CC(=O)N[C@@H](c1cnn2cc([C@@H](NC(=O)c3conc3C3CC3)C3CCC(F)(F)CC3)nc2c1)C1CC1)C(F)(F)F (single isomer, unassigned) [Example 129] :: 51
CC(C)c1ccsc1C(=O)N[C@H](c1cn2ncc([C@H](NC(=O)CCC(F)(F)F)C3CC3)cc2n1)C1CCC(F)(F)CC1 [Example 463] :: 94
O=C(CCC(F)(F)F)N[C@@H](c1cnn2cc([C@@H](NC(=O)c3ccnc(OC4CC4)c3)C3CCC(F)(F)CC3)nc2c1)C1CC1 [Example 172] :: 44
Cc1nonc1C(=O)N[C@H](c1cn2ncc([C@H](NC(=O)CC3CC(F)(F)C3(F)F)C3CC3)cc2n1)C1CCC(F)(F)CC1 (single isomer, unassigned) [Example 325] :: 91
N#CC1(C(NC(=O)CC2CC(F)(F)C2)c2cnn3cc([C@@H](NC(=O)c4nonc4C4CC4)C4CCC(F)(F)CC4)nc3c2)CC1 (single isomer, unassigned) [Example 424] :: 47
O=C(CCC(F)(F)F)N[C@@H](c1cnn2cc([C@@H](NC(=O)c3nonc3OCCF)C3CCC(F)(F)CC3)nc2c1)C1CC1 [Example 384] :: 66

[I] Cc1cc(C(=O)N[C@H](c2cn3ncc([C@H](NC(=O)CCC(F)(F)F)C4CC4)cc3n2)C2CCC(F)(F)CC2)ncn1 [Example 218]
[II] O=C(CCC(F)(F)F)N[C@@H](c1cnn2cc([C@@H](NC(=O)c3cnnn3CCCF)C3CCC(F)(F)CC3)nc2c1)C1CC1 [Example 112]
[III] O=C(CCC(F)(F)F)N[C@@H](c1cnn2cc([C@@H](NC(=O)c3cccnc3)C3CCC(F)(F)CC3)nc2c1)C1CC1 [Example 192]
[IV] O=C(CCC(F)(F)F)N[C@@H](c1cnn2cc([C@@H](NC(=O)c3conc3C3CC3)C3CCC(F)(F)CC3)nc2c1)C1CC1 [Example 75]
[V] Cc1nonc1C(=O)N[C@H](c1cn2ncc(C(CC3CCC3)NC(=O)CC3CC(F)(F)C3)cc2n1)C1CCC(F)(F)CC1 (single isomer, unassigned) [Example 438]
Please order the records by their reported IC50, lowest number first. Answer by listing the labels in the order asked for. IV, II, III, V, I
(IV: 50 nM, II: 120 nM, III: 240 nM, V: 470 nM, I: 2000 nM)

[A] [2H]C([2H])([2H])n1nccc1C(=O)N[C@H](c1cn2ncc(C(NC(=O)CC3CC(F)(F)C3)C3CCC3)cc2n1)C1CCC(F)(F)CC1 (single isomer, unassigned) [Example 497]
[B] [2H]C([2H])([2H])C([2H])([2H])n1nccc1C(=O)N[C@@H](CC(C)(C)C(F)(F)F)c1cn2ncc([C@H](NC(=O)CC3CC(F)(F)C3)C3CC3)cc2n1 [Example 545]
From the items above, decide which of A and B has the lower IC50 reading. Answer with the label corresponding to your selection. A
(A: 91 nM, B: 170 nM)

[a] O=C(CCC(F)(F)F)N[C@@H](c1cnn2cc([C@@H](NC(=O)c3ncnn3CCF)C3CCC(F)(F)CC3)nc2c1)C1CC1 [Example 57]
[b] Cc1nccnc1C(=O)N[C@H](c1cn2ncc([C@H](NC(=O)CCC(F)(F)F)C3CC3)cc2n1)C1CCC(F)(F)CC1 [Example 219]
[c] O=C(CCC(F)(F)F)N[C@@H](c1cnn2cc([C@@H](NC(=O)c3cccc(N4CCCC4=O)c3)C3CCC(F)(F)CC3)nc2c1)C1CC1 [Example 163]
Falling order of IC50, please. Answer by listing the labels in the order asked for. b, a, c
(b: 2100 nM, a: 220 nM, c: 120 nM)
